compounds and their reported IC50
# target-or-system: CDGSH iron-sulfur domain-containing protein 2 (Homo sapiens)
# Sequence (Q8N5K1 whole entry, the tested form may be a part): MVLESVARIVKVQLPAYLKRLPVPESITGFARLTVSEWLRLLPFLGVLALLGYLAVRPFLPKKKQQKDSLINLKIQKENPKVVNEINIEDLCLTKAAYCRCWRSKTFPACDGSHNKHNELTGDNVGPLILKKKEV
# protocol-summary: Binding affinity to recombinant human N-terminal His6-tagged NAF1 expressed in Escherichia coli by scintillation proximity assay

- compound: "CC(C)(C)c1cc(CC2SC(=O)N=C2O)cc(C(C)(C)C)c1O (stereo not drawn)"
  target-or-system: "CDGSH iron-sulfur domain-containing protein 2 (Homo sapiens)"
  IC50, µM: 29.8
- compound: "CN(CCOc1ccc(CC2SC(=O)NC2=O)cc1)c1ccccn1 (stereo not drawn) [ROSIGLITAZONE]"
  target-or-system: "CDGSH iron-sulfur domain-containing protein 2 (Homo sapiens)"
  IC50, µM: 2.29
- compound: "CCc1ccc(CCOc2ccc(CC3SC(=O)NC3=O)cc2)nc1 (stereo not drawn) [PIOGLITAZONE]"
  target-or-system: "CDGSH iron-sulfur domain-containing protein 2 (Homo sapiens)"
  IC50, µM: 4.8
